biological target: TGF-beta1 (hTGF-beta1) (Homo sapiens, UniProt P01137 P01137:279-390); assay: cell_activity; MLEC assay; details: tags: R&D Systems; biotinylated form (NFTG0) used for BIAcore; chain copies: 2
Sequence (P01137 279-390, one chain of several): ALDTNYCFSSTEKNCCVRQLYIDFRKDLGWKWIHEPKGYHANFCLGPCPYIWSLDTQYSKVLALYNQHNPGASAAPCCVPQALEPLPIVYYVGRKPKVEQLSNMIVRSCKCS
Param label: returns condition met when Ki < 4 nM, returns condition not met otherwise, including exact equality.

Ask: is_below(Ki, 4 nM) for 40-55 (ssRNA, 2'-F C and U) RNA: GGGAGGACGAUGCGGUUAGGGGCGUCAACACCGCUAUUCAACCUUCGCUUCCCCAGACGACUCGCCCGA ?
Result: condition met

Ask: Another binder to check: 40-58 (ssRNA, 2'-F C and U) RNA: GGGAGGACGAUGCGGUUAUGGGCGUCAACACCGCUAUUACAACUUUCGCCUCCCCAGACGACUCGCCCGA
Result: condition met

Ask: Request: 40-12 (ssRNA, 2'-F C and U) RNA: GGGAGGACGAUGCGGGACCCUUGUCUGCGAUUCAACUCGUAGGUUUUCUCACGUGCAGACGACUCGCCCGA
Result: condition not met

Ask: What do you get for 40-23 (ssRNA, 2'-F C and U) RNA: GGGAGGACGAUGCGGUUAGGGGCGUCAACACCGCUAUUACAAUCUUCGCUUCCCAGACGACUCGCCCGA ?
Result: condition met

The reported measurements were obtained from patent US6124449.
